Biological target: Ectonucleoside triphosphate diphosphohydrolase 1 (Homo sapiens)
Sequence (P49961 whole entry): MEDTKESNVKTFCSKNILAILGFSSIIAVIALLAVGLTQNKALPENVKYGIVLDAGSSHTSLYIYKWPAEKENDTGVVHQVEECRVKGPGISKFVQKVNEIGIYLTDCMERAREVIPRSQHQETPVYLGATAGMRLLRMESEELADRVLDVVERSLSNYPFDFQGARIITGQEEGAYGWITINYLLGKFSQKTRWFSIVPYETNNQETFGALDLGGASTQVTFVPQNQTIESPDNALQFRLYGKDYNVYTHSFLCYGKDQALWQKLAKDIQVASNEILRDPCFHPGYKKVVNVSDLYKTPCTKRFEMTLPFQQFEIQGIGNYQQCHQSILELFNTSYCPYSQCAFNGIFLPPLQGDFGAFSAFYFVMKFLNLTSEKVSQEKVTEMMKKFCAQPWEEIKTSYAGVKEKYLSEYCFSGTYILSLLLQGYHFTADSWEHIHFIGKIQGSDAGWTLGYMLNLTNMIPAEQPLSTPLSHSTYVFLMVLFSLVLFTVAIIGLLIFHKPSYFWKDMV
Quantity: IC50

{"Given Smiles": "COc1ccc(-c2c(C(F)(F)F)nc3c(-c4ccc(OC)cc4)cccc3c2-c2ccc(OC)cc2)cc1", "IC50": "> 300 µM"}

Query :: Find the measured IC50 of FC(F)(F)c1nc2c(-c3ccccc3)cccc2c(Cl)c1-c1ccccc1 and report it.
Result :: > 300 µM
